ASSAY_SUMMARY: Acute toxicity in mice, LD50 oral and intraperitoneal
SETUP_CONDITIONS: mouse, in vivo, po, per os, read-out: Acute toxicity, oral route LD50
MEASURE_NAME: LD50

# COMPOUND, VALUE_OBSERVED
rows = [
    ("NCC1CCCc2scnc21 (stereo not drawn)", "> 200 mg/kg"),
    ("CNCC1CCCc2scnc21 (stereo not drawn)", "> 200 mg/kg"),
    ("CNCC1CCc2ncsc2C1 (stereo not drawn)", "170 mg/kg"),
    ("NCC1CCc2scnc2C1 (stereo not drawn)", "≥ 200 mg/kg"),
    ("CCCNCC1CCc2ncsc2C1 (stereo not drawn)", "> 200 mg/kg"),
    ("CCCCc1nc2c(s1)CCCC2CNC (stereo not drawn)", "≥ 200 mg/kg"),
]

Record LD50 for all entries; do not skip any.
1. Cc1nc2c(s1)CC(CN)CC2 (stereo not drawn)
2. CNCC1CCc2nc(C)sc2C1 (stereo not drawn)
3. CNCC1CCc2sc(C)nc2C1 (stereo not drawn)
4. CCCCNCC1CCc2sc(C)nc2C1 (stereo not drawn)
5. CNCC1CCc2sc(C(C)C)nc2C1 (stereo not drawn)

1. > 200 mg/kg
2. > 200 mg/kg
3. > 200 mg/kg
4. 145 mg/kg
5. > 200 mg/kg

Briefly, LD50 measured for Cc1nc2c(s1)CCC(CN)C2 (stereo not drawn) : > 200 mg/kg

====

Please provide measured LD50 for the entries that follow.
ASSAY_SUMMARY: Acute toxicity in mice, LD50 oral and intraperitoneal
SETUP_CONDITIONS: mouse, in vivo, ip, read-out: Acute toxicity, intraperitoneal route LD50

# COMPOUND, LD50
records = [
    ("CNCC1CCc2sc(C(C)C)nc2C1 (centres unmarked)", "140 mg/kg"),
]

Record LD50 for all entries; do not skip any.
1. CCCCNCC1CCCc2sc(C)nc21 (centres unmarked)
2. CNCC1CCCc2scnc21 (centres unmarked)
3. NCC1CCc2scnc2C1 (centres unmarked)
4. CCCCNCC1CCc2sc(C)nc2C1 (centres unmarked)
5. Cc1nc2c(s1)CC(CN)CC2 (centres unmarked)
6. Cc1nc2c(s1)CCC(CNC(C)C)C2 (centres unmarked)
7. CNCC1CCc2nc(C)sc2C1 (centres unmarked)

58 mg/kg
≥ 200 mg/kg
> 200 mg/kg
58 mg/kg
> 200 mg/kg
> 200 mg/kg
> 200 mg/kg

Record LD50 for all entries; do not skip any.
1. CCCCc1nc2c(s1)CCC(CNC)C2 (centres unmarked)
2. CNCC1CCc2ncsc2C1 (centres unmarked)
3. CCNCC1CCc2nc(CC)sc2C1 (centres unmarked)
4. CNCC1CCc2scnc2C1 (centres unmarked)
5. Cc1nc2c(s1)CCC(CN)C2 (centres unmarked)

1: 140 mg/kg; 2: 75 mg/kg; 3: 120 mg/kg; 4: > 200 mg/kg; 5: > 200 mg/kg

Record LD50 for all entries; do not skip any.
1. CCCCc1nc2c(s1)CCCC2CNC (centres unmarked)
2. CCCNCC1CCc2ncsc2C1 (centres unmarked)
3. NCC1CCc2ncsc2C1 (centres unmarked)

1. 58 mg/kg
2. 190 mg/kg
3. > 200 mg/kg

Briefly, LD50 measured for NCC1CCCc2scnc21 (centres unmarked) : 140 mg/kg
